tested on: TK-10; experiment: NCI tumour cell line growth inhibition, 48 h
Active and inactive are the calls of the source. Cut-off read from the data, not from the text of the source: active = GI50 up to about 1.1 µM and inactive = higher.
readout.type: GI50

compound=COc1ccc(/C=N/N=C(\N)NO)cc1F test_system=TK-10 reported_measurement="43 µM (inactive)"
compound=NC(=O)N/N=C(\CCC(=O)N(Cc1ccccc1)Cc1ccccc1)CC(=O)c1ccc(F)cc1 test_system=TK-10 reported_measurement="> 100 µM (inactive)"
compound=CCOC(=O)C(=O)Nc1c(C)cccc1C test_system=TK-10 reported_measurement="> 100 µM (inactive)"
compound="O=C(NC1C2CC3CC(C2)CC1C3)/C(Cl)=C1/Sc2ccccc2NC1=O (configuration not stated)" test_system=TK-10 reported_measurement="> 64.6 µM (inactive)"
compound=C[C@@]12C[C@@H](c3ccccc3O1)N1CCCSC1=N2 test_system=TK-10 reported_measurement="> 100 µM (inactive)"

Known value: TK-10 GI50 of the compound CC(C)=NN/C(=N\c1ccc(Cl)cc1)NS(=O)(=O)c1ccc(Oc2cccc(Cl)c2C#N)cc1 equals > 100 µM (inactive)

Known value: TK-10 GI50 of the compound O=c1ccc2[n+]([O-])c3ccc(O)cc3oc-2c1 equals 36 µM (inactive)

Known value: TK-10 GI50 of the compound C=CCCCC12CCCc3cccc(c31)NC2=O (configuration not stated) equals 19.6 µM (inactive)

Known value: TK-10 GI50 of the compound COc1cc(O)c2c(=O)c(OC)c(-c3ccc4c(c3)OCO4)oc2c1 equals 36.7 µM (inactive)

Known value: TK-10 GI50 of the compound CC(C)N(O)C(=N)c1ccccc1 equals > 100 µM (inactive)

Known value: TK-10 GI50 of the compound C=CCSC1=N/C(=C\c2cccs2)C(=O)N1CC=C equals > 100 µM (inactive)

Known value: TK-10 GI50 of the compound COc1nc2c(c(=O)n1C)N[C@H]1[C@H](OC(C)=O)[C@@H](OC(C)=O)CO[C@H]1N2 equals > 100 µM (inactive)

Known value: TK-10 GI50 of the compound CCO[C@@H]1C2C=CC(C2)[C@H]1[N+](=O)[O-] (some centres not stated) equals > 100 µM (inactive)

Known value: TK-10 GI50 of the compound CCOc1ccc(/N=C/c2ccnc3ccccc23)cc1 equals 92.3 µM (inactive)

Known value: TK-10 GI50 of the compound O=C(O)CSc1nnc(-c2ccc(O)cc2)[nH]1 equals > 100 µM (inactive)

Known value: TK-10 GI50 of the compound COc1ccc(-c2nc(N)c(C#N)c3c2CCS(=O)(=O)c2ccc(C)cc2-3)cc1OC equals 56.1 µM (inactive)

Known value: TK-10 GI50 of the compound O=C1c2ccccc2C(=O)C1C(c1ccc([N+](=O)[O-])cc1)C1C(=O)c2ccccc2C1=O equals > 100 µM (inactive)

----------
system: RPMI-8226; assay: NCI tumour cell line growth inhibition, 48 h
The source made the active and inactive calls. Rule as the data show it: active = GI50 up to about 1.1 µM and inactive = higher.
Outcomes you can answer with include only these: 1 = active, 0 = inactive

Please review the entries below; each comes with its answer.
compound=Oc1ccc(Br)cc1/C=N/c1ccc(Oc2ccc(/N=C/c3cc(Br)ccc3O)cc2)cc1 label=0
compound="C=C(c1nc2ccc(Cl)cc2[nH]c1=O)C(O)c1ccc(C(O)C(=O)c2nc3ccc(Cl)cc3[nH]c2=O)cc1 (centres undefined)" label=0
compound="CC(=O)NC1C(OCC(=O)NC(C)C(=O)NC(CCC(=O)NCCCCCNc2ccc([N+](=O)[O-])c3[nH]c4ccccc4c(=O)c23)C(N)=O)C(O)C(CO)OC1(C)OCc1ccccc1 (centres undefined)" label=1
compound="CC(C)[S+]1C2=C(CC(C)(C)CC2=O)[N-]c2ccccc21 (centres undefined)" label=0
compound=Cc1c(C(=O)/C=C/c2ccc(Cl)cc2)[n+]([O-])c2ccccc2[n+]1[O-] label=0
compound=Cc1nc2ccccc2c(=O)n1-c1ccccc1I label=0
compound=COc1cc(/C=C/C(=O)O)ccc1OS(=O)(=O)O label=0
compound=COc1cc(O)c2c(=O)c(OC)c(-c3ccc4c(c3)OCO4)oc2c1 label=0

Then this compound:
Which outcome did this test record for the compound CC1=C(/C=C/C(C)=C/C=C/C(C)=C/C=C/C=C(C)/C=C/C=C(C)/C=C/C2=C(C)C(=O)C(O)CC2(C)C)C(C)(C)CC(O)C1=O (centres undefined) ? 0

----------
tested on: MDA-MB-231; assay: NCI tumour cell line growth inhibition, 48 h
The source made the active and inactive calls. Rule as the data show it: active = GI50 up to about 1.1 µM and inactive = higher.
Outcomes you can answer with include only these: 1 (active), -1 (inactive)

Please review the entries below; each comes with its answer.
compound=O=C(c1ccccc1Cl)n1oc2ccccc2c1=O test_system=MDA-MB-231 label=-1
compound=CC(C)Nc1[nH]c(C(=O)c2ccccc2)c(N)c1C(=S)Nc1ccccc1 test_system=MDA-MB-231 label=-1

Which outcome did this test record for the compound Cc1ccsc1C(=S)Nc1ccc(Cl)c(C(=O)OC(C(C)C)C(C)C)c1 ? -1

Which outcome did this test record for the compound COc1ccc(N2NC(c3ccccc3)(c3ccccc3)C(C)C2=O)cc1 (stereo not drawn) ? -1

Which outcome did this test record for the compound O=C1C(CN2CCCCC2)CCC1CN1CCCCC1 (stereo not drawn) ? -1

Which outcome did this test record for the compound C=C(c1nc2ccc(Cl)cc2[nH]c1=O)C(O)c1ccc(C(O)C(=O)c2nc3ccc(Cl)cc3[nH]c2=O)cc1 (stereo not drawn) ? -1

Which outcome did this test record for the compound COc1c(-c2nc3ccc(N4CCN(C)CC4)nc3[nH]2)cc(OC)c2c1nc(COC(C)=O)n2C ? -1

Which outcome did this test record for the compound Nc1ccc2c3[nH]c4cc(N)ccc4cc-3nc2c1 ? 1

Which outcome did this test record for the compound Oc1ccc(Br)cc1/C=N/C1CCCCC1 ? -1

Which outcome did this test record for the compound CN(C)/C=C/c1c2c(nc3ccccc13)C(=O)c1ccccc1C2=O ? -1

Which outcome did this test record for the compound C/C(=N\NC(=O)CC#N)C(CN1CCCCC1)C(c1ccccc1)c1c(O)c2ccccc2oc1=O (stereo not drawn) ? -1

Which outcome did this test record for the compound Cc1ccc2oc3c(c(Br)c(Br)n3C)c(=O)c2c1 ? -1

Which outcome did this test record for the compound O=C1CSC2=NCC3(NN12)c1ccccc1-c1ccccc13 ? -1

Which outcome did this test record for the compound O=C(NCCc1ccccc1)c1c(O)nc2ccccc2c1O ? -1

Which outcome did this test record for the compound CN(C)CCCn1c2ccccc2c2cnccc21 ? -1

Which outcome did this test record for the compound Oc1cc(-c2cccc(OC(F)(F)F)c2)nc2ccc(N3CCCC3)cc12 ? 1

Which outcome did this test record for the compound COc1ccc2nc3ccccc3c(NCCN(C)CCCl)c2c1 ? -1

----------
system: IGROV-1; assay: NCI tumour cell line growth inhibition, 48 h
Calls of active or inactive are those of the source. No stated cut-off is given here; in the data, active = GI50 up to about 1.1 µM and inactive = higher.
readout.type: GI50

Worked examples follow.
compound=N=C(N)NS(=O)(=O)c1ccc(NC(=O)c2ccc3nc4ccccc4c(O)c3c2)cc1 reported_measurement="> 100 µM (inactive)"
compound=CC1=C(C(=O)CC(=O)C(=O)Nc2ccccc2C)Sc2ccccc2N1 reported_measurement="> 100 µM (inactive)"
compound="O=c1sc2ccccc2n1CC1CS1 (stereo unspecified)" reported_measurement="> 100 µM (inactive)"
compound=CC1(C)C(=O)C(=Cc2ccco2)C1=O reported_measurement="> 100 µM (inactive)"
compound="Cc1ccc2c(c1)C(=O)C(C1OC(=O)c3ccccc31)C2 (stereo unspecified)" reported_measurement="> 100 µM (inactive)"
compound=COc1nc2c(c(=O)n1C)N[C@H]1[C@H](OC(C)=O)[C@@H](OC(C)=O)CO[C@H]1N2 reported_measurement="> 100 µM (inactive)"

Entry COc1ccc(C2=Nn3c(nnc(Cc4ccc(Cl)cc4)c3=O)SC2)cc1 , GI50 reported as 51.1 µM (inactive)

Entry O=C1CC(c2cccc([N+](=O)[O-])c2)C2(C(=O)NC(=O)NC2=O)C(c2cccc([N+](=O)[O-])c2)C1 (stereo unspecified) , GI50 reported as 60.7 µM (inactive)

Entry Cn1c2ccccc2c2c(=O)[nH]c(=O)[nH]c21 , GI50 reported as > 100 µM (inactive)

Entry COc1ccc(N2C(=O)C3CC(c4ccc(Br)cc4)c4c([nH]c5ccccc45)C3C2=O)cc1 (stereo unspecified) , GI50 reported as 10.6 µM (inactive)

Entry CC1CC(C#N)=C2NCCCCN2C1=O (stereo unspecified) , GI50 reported as > 100 µM (inactive)

----------
Below: a set of entries, each annotated with reported GI50.
system: SK-MEL-28; test: NCI tumour cell line growth inhibition, 48 h
Calls of active or inactive are those of the source. Cut-off read from the data, not from the text of the source: active = GI50 up to about 1.1 µM and inactive = higher.

compound=O=c1[nH]cc(COCCCO)c(=O)[nH]1 test_system=SK-MEL-28 reported_measurement="> 100 µM (inactive)"

Entry COC(c1ccc(C(C)(C)C)cc1)(c1ccc(C(C)(C)C)cc1)c1ccc(C(C)(C)C)cc1 , GI50 reported as > 100 µM (inactive)

Entry N#Cc1c(O)c(/C=N/c2ncccn2)c(=O)n2c1[nH]c1ccccc12 , GI50 reported as > 100 µM (inactive)

Entry COC(=O)C(=O)C(C#N)c1ccc(CC#N)cc1 (stereo unspecified) , GI50 reported as > 100 µM (inactive)

Entry CC#CC(O)(C(=O)OC1CCC2CCC1N2C)C1CCCC1 (stereo unspecified) , GI50 reported as > 100 µM (inactive)

Entry CC1(C)OC(=O)C(=C2CCC(C(=O)Nc3cccc(C(F)(F)F)c3)N2)C(=O)O1 (stereo unspecified) , GI50 reported as 97.7 µM (inactive)
